Test: Rat pharmacokinetic studies of prodrug and released riluzole (IV or oral)
Format: in vivo, Sprague-Dawley rats
Details: rat, plasma; fasted male Sprague Dawley rats, PO 5 mg/kg
Method: Rat Pharmacokinetic Studies of the Compounds of the Disclosure: Blood samples were collected at pre-determined time points including a 0 h time point and usually between 7 and 8 additional time points not exceeding a 24 h period. Plasma samples were extracted and analyzed using the methods described in Plasma Sample Extraction and Analysis. All data are expressed as ng/mL of the free base. Samples that were below the limit of quantification (0.5 ng/mL) were not used in the calculation of averages. […]

[
  {
    "MOLECULE": "CN(CC(=O)Nc1nc2ccc(OC(F)(F)F)cc2s1)C(=O)CNC(=O)CN [Example 204]",
    "Cmax (ng/mL)": 1.84
  },
  {
    "MOLECULE": "CN(CC(=O)Nc1nc2ccc(OC(F)(F)F)cc2s1)C(=O)CNC1CCNCC1 [Example 216]",
    "Cmax (ng/mL)": 2.96
  }
]

###

experiment: Rat pharmacokinetic studies of prodrug and released riluzole (IV or oral); format: in vivo, Sprague-Dawley rats; details: rat, plasma; fasted male Sprague Dawley rats, IV, prodrug dose 2.8 mg/Kg; read-out: Compound of the disclosure Vss
Class 1 (yes): Vd at least 3 L/kg. Class 0 (no): Vd below 3 L/kg.

[
  {
    "COMPOUND": "CN(CC(=O)Nc1nc2ccc(OC(F)(F)F)cc2s1)C(=O)C1(CN)CCCC1 [Example 120]",
    "CATEGORY LABEL": "1 (yes)"
  },
  {
    "COMPOUND": "CN(CC(=O)Nc1nc2ccc(OC(F)(F)F)cc2s1)C(=O)C1(CN)CC1 [Example 119]",
    "CATEGORY LABEL": "1 (yes)"
  },
  {
    "COMPOUND": "CN(CC(=O)Nc1nc2ccc(OC(F)(F)F)cc2s1)C(=O)CNC1COC1 [Example 234]",
    "CATEGORY LABEL": "0 (no)"
  },
  {
    "COMPOUND": "CN(CC(=O)Nc1nc2ccc(OC(F)(F)F)cc2s1)C(=O)CNC1CCNCC1 [Example 216]",
    "CATEGORY LABEL": "0 (no)"
  },
  {
    "COMPOUND": "CC(C)NCC(=O)NC(C)(C)C(=O)Nc1nc2ccc(OC(F)(F)F)cc2s1 [Example 113]",
    "CATEGORY LABEL": "1 (yes)"
  },
  {
    "COMPOUND": "CN(CC(=O)Nc1nc2ccc(OC(F)(F)F)cc2s1)C(=O)C1(CN)CCCCC1 [Example 121]",
    "CATEGORY LABEL": "1 (yes)"
  },
  {
    "COMPOUND": "CC(C)NCC(=O)N(C)CC(=O)Nc1nc2ccc(OC(F)(F)F)cc2s1 [Example 124]",
    "CATEGORY LABEL": "0 (no)"
  },
  {
    "COMPOUND": "CNCC(=O)NC(C)(C)C(=O)Nc1nc2ccc(OC(F)(F)F)cc2s1 [Example 111]",
    "CATEGORY LABEL": "1 (yes)"
  },
  {
    "COMPOUND": "NCC(=O)NC1(C(=O)Nc2nc3ccc(OC(F)(F)F)cc3s2)CCC1 [Example 82]",
    "CATEGORY LABEL": "1 (yes)"
  }
]

Measured values drawn from patent US10639298B2 for this set.
